All values here come from patent US8029764B2.

- Tested on: colorectal tissue transcripts
- test_method_notes: SAGE of normal, adenoma and cancer colorectal tissue (transcript tag counts)
- Set-up: species or system human
- assay_setup: SAGE library NC1
Please note: NC1 (SAGE tag count) exactly at 20 is n. Only values below 20 get y.

                                  seq_string  category
 0  CCTGCTGCAG (chemistry not fully specified)         y
 1  AATAAAGGCT (chemistry not fully specified)         n
 2  GCCAGACACC (chemistry not fully specified)         y
 3  GCCACATACT (chemistry not fully specified)         y
 4  ATGGTGGGGG (chemistry not fully specified)         n
 5  GCACCCTTTC (chemistry not fully specified)         y
 6  ATACTCCACT (chemistry not fully specified)         n
 7  ATGCGGGAGA (chemistry not fully specified)         n
 8  GGAAGAGCAC (chemistry not fully specified)         n
 9  CTGAACCTCC (chemistry not fully specified)         y
10  GTCCTGAACA (chemistry not fully specified)         y
11  ACTGTGGCGG (chemistry not fully specified)         y
12  CGAGGGGCCA (chemistry not fully specified)         n
13  ATGGCACGGA (chemistry not fully specified; the letters are possibly those of the target site)         y
14  CTTGACATAC (chemistry not fully specified)         y
15  ATATAATCTG (chemistry not fully specified)         y
16  AGGATGGTCC (chemistry not fully specified; the letters are possibly those of the target site)         n
17  ACCCCCCCGC (chemistry not fully specified)         n
18  GTCATCACCA (chemistry not fully specified; the letters are possibly those of the target site)         n
19  GGCTCGGGAT (chemistry not fully specified)         y

---

- Test system: colorectal tissue transcripts
- test_method_notes: SAGE of normal, adenoma and cancer colorectal tissue (transcript tag counts)
- Parameters: species or system human
- assay_setup: SAGE library CA2
readout: CA2 (SAGE tag count)

                                  seq_string               readout  measured_result
 0  GCCCAGTGGC (chemistry not fully specified)  CA2 (SAGE tag count)                5
 1  GATGACCCCC (chemistry not fully specified)  CA2 (SAGE tag count)                3
 2  GCCGACCAGG (chemistry not fully specified)  CA2 (SAGE tag count)                9
 3  ATATAATCTG (chemistry not fully specified)  CA2 (SAGE tag count)                5
 4  ACAGGGTGAC (chemistry not fully specified)  CA2 (SAGE tag count)                6
 5  CCTTCAAATC (chemistry not fully specified)  CA2 (SAGE tag count)                0
 6  GCGAAACCCT (chemistry not fully specified)  CA2 (SAGE tag count)               98
 7  GTAGCAGGTG (chemistry not fully specified)  CA2 (SAGE tag count)                7
 8  CTTAGAGGGG (chemistry not fully specified)  CA2 (SAGE tag count)                1
 9  ACACCCATCA (chemistry not fully specified)  CA2 (SAGE tag count)                3
10  GCCCACACAG (chemistry not fully specified)  CA2 (SAGE tag count)                0
11  CGCTGTGGGG (chemistry not fully specified)  CA2 (SAGE tag count)                6
12  CTGTGTGGCT (chemistry not fully specified; the letters are possibly those of the target site)  CA2 (SAGE tag count)                0
13  ACCCAACTGC (chemistry not fully specified)  CA2 (SAGE tag count)                0
14  ACGGTCCAGG (chemistry not fully specified)  CA2 (SAGE tag count)                1
15  CCAACACCAG (chemistry not fully specified)  CA2 (SAGE tag count)                1
16  ATGGCACGGA (chemistry not fully specified; the letters are possibly those of the target site)  CA2 (SAGE tag count)                0
17  GCAGCTCCTG (chemistry not fully specified)  CA2 (SAGE tag count)                3
18  CCTCCAGTAC (chemistry not fully specified)  CA2 (SAGE tag count)                4
19  GCACAGGTCA (chemistry not fully specified)  CA2 (SAGE tag count)                1
20  AAGAAAGCTC (chemistry not fully specified)  CA2 (SAGE tag count)                5

---

- Test system: colorectal tissue transcripts
- test_method_notes: SAGE of normal, adenoma and cancer colorectal tissue (transcript tag counts)
- Parameters: species or system human
- assay_setup: adenoma library 2
readout: AD2 (SAGE tag count)

>>> print(df.to_string())
                                 seq_string               readout  measured_result
0  TGCAGCGCCT (chemistry not fully specified; the letters are possibly those of the target site)  AD2 (SAGE tag count)                1
1  TAAATTGCAA (chemistry not fully specified)  AD2 (SAGE tag count)               17
2  TGCCGCCCGC (chemistry not fully specified)  AD2 (SAGE tag count)                2
3  TACGGTGTGG (chemistry not fully specified)  AD2 (SAGE tag count)                2
4  GTTTAGAGGG (chemistry not fully specified)  AD2 (SAGE tag count)                0

---

- System: colorectal tissue transcripts
- test_method_notes: SAGE of normal, adenoma and cancer colorectal tissue (transcript tag counts)
- Set-up: species or system human
- assay_setup: adenoma library 2
Rule: AD2 (SAGE tag count) under 3 gives False, otherwise True.

In [3]: df
Out[3]:
                                 seq_string  category
0  TACTGTGGAT (chemistry not fully specified)     False
1  TAGGATGGGG (chemistry not fully specified)      True
2  TCACAGTGCC (chemistry not fully specified)     False
3  TTTGGTTTCA (chemistry not fully specified)     False
4  TGGCCATCTG (chemistry not fully specified)      True

---

Each entry below carries its reported NC1 (SAGE tag count).
- Tested on: colorectal tissue transcripts
- test_method_notes: SAGE of normal, adenoma and cancer colorectal tissue (transcript tag counts)
- Parameters: species or system human
- assay_setup: SAGE library NC1
- Experimental: In an effort to identify potential molecular markers of early colorectal tumors, we have here analyzed gene expression in benign and malignant colorectal tumors in an unbiased and comprehensive fashion. […] The abundance of each tag provides a quantitative measure of the transcript level present within the mRNA population studied. […] For the current study, SAGE libraries derived from two samples of normal colonic epithelium, two colorectal adenomas, and two colorectal cancers were analyzed. […]
readout: NC1 (SAGE tag count)

In [3]: df
Out[3]:
                                 seq_string  measured_result
0  ACAGGGTGAC (chemistry not fully specified)               25
1  GATATGTAAA (chemistry not fully specified)                1
2  ATGCGGAGTC (chemistry not fully specified)               14
3  GCCAGGTTGC (chemistry not fully specified)               14
4  ATGACGCTCA (chemistry not fully specified)               22
5  CTGGGCCTCT (chemistry not fully specified)               22

---

- Test system: colorectal tissue transcripts
- test_method_notes: SAGE of normal, adenoma and cancer colorectal tissue (transcript tag counts)
- Design: species or system human
- assay_setup: SAGE library NC1
Below, each entry is listed alongside its reported NC1 (SAGE tag count).
readout: NC1 (SAGE tag count)

                                  seq_string  measured_result
 0  GAGCACCGTG (chemistry not fully specified)                7
 1  GCCGACCAGG (chemistry not fully specified)               46
 2  GACGCGGCGC (chemistry not fully specified)               30
 3  CAGTGCGTTC (chemistry not fully specified)               12
 4  GCTCTTCCCC (chemistry not fully specified; the letters are possibly those of the target site)                9
 5  GGGCGCTGTG (chemistry not fully specified)               11
 6  GCACAGGTCA (chemistry not fully specified)                5
 7  AGAATAGCTT (chemistry not fully specified)               44
 8  ACCTGCATCC (chemistry not fully specified)                0
 9  GCCCAGGGCC (chemistry not fully specified; the letters are possibly those of the target site)                4
10  CCAACACCAG (chemistry not fully specified)                9
11  AATAGTTTCC (chemistry not fully specified)                7
12  GTGCCTGAGA (chemistry not fully specified)               18
13  GATGACCCCC (chemistry not fully specified)               42
14  GTGGTTCACG (chemistry not fully specified)                4
15  CTGACCTGTG (chemistry not fully specified)               88
16  GCCCACGTCA (chemistry not fully specified)                7
17  CCACTGCACC (chemistry not fully specified)               21
18  GGAACAGGGG (chemistry not fully specified)                1
